Provenance of the data: patent US20120214822A1

System Under Test: human active recombinant p38α-6His tagged (Homo sapiens)
Sequence (Q16539 whole entry): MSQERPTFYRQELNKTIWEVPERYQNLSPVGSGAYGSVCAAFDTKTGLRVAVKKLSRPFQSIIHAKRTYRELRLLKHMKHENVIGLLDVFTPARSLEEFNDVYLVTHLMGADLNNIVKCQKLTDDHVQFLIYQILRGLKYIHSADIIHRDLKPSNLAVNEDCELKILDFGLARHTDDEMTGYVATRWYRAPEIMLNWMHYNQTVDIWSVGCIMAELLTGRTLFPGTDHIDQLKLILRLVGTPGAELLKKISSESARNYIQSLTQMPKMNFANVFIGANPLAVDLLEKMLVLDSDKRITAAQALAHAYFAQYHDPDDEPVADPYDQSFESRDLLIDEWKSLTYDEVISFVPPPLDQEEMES
Method: P38 Alpha Enzyme Assay (AlphaScreen, biotinylated-ATF2 substrate)
Type: biochemical
Settings: p38 alpha enzyme inhibition; means of replicate determinations; 4 h pre-incubation at 37° C.; SD of assay 0.2-0.3 log units
Readout Label: pIC50

CNCCOc1ccccc1C(C)(C)Nc1nccn(-c2cc(C(=O)NCC(C)C)ccc2C)c1=O = 6.6
Cc1ccc(C(=O)NC2CC2)cc1-n1ccnc(N[C@@H](c2ccccc2)[C@@H](C)CN2CCSCC2)c1=O = 9.2
Cc1ccc(C(=O)NC2CC2)cc1-n1ccnc(N[C@@H](c2ccccc2)[C@@H](C)CN2CCC(CO)CC2)c1=O = 9.1
Cc1ccc(C(=O)NC2CC2)cc1-n1ccnc(NCc2ccccc2O)c1=O = 7.6

[A] Cc1ccc(C(=O)NC2CC2)cc1-n1ccnc(NC(C)(C)Cc2ccccc2)c1=O
[B] Cc1ccc(C(=O)NC2CC2)cc1-n1ccnc(NC2(c3cc(F)ccc3OCCNCCO)CC2)c1=O
Incoming: Would you mind telling me which has the lower recorded pIC50 between A and B ? Indicate which entry you chose by stating its label.
Outgoing: A

----------
System Under Test: human active recombinant p38α-6His tagged (Homo sapiens)
Method: P38 Alpha Enzyme Assay (AlphaScreen, biotinylated-ATF2 substrate);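 also: 0.5 nM final p38α, reaction started with ATP and run 45 min at 37 °C, phospho-ATF2 read by antibody-based AlphaScreen, background wells quenched with EDTA before ATP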
Type: biochemical
Settings: p38 alpha enzyme inhibition; means of replicate determinations; 4 h pre-incubation at 37° C.; SD of assay 0.2-0.3 log units
Readout Label: pIC50

Cc1ccc(C(=O)NC2CC2)cc1-n1ccnc(N[C@@H](c2ccccc2)[C@@H](C)CN(C)CCN(C)C)c1=O = 8.9
Cc1ccc(C(=O)NC2CC2)cc1-n1cc(Cl)nc(N2CCN(C)CC2)c1=O = 6.1
CCNCCOc1ccccc1C1(Nc2nccn(-c3cc(C(=O)NC4CC4)ccc3C)c2=O)CCC1 = 9.9

[P] Cc1ccc(C(=O)NC2CC2)cc1-n1ccnc(N[C@@H](c2ccccc2)[C@@H](C)CN(C)C(C)(C)C)c1=O
[Q] Cc1ccc(C(=O)NC2CC2)cc1-n1ccnc(NCc2ccc(S(C)(=O)=O)cc2)c1=O
Incoming: Of P versus Q , which is the one with smaller reported pIC50? Refer to your chosen entry by its label in the reply.
Outgoing: Q
(Q: 5.5, P: 9)

[1] Cc1ccc(C(=O)NC2CC2)cc1-n1ccnc(NC2(c3ccccc3OCCNC(CO)CO)CC2)c1=O
[2] Cc1ccc(C(=O)NC2CC2)cc1-n1ccnc(N2CCN(C)CC2c2ccccc2)c1=O (stereo not drawn)
Incoming: Returns the identifier with the smallest measured pIC50 among 1 and 2 . Answer with the label corresponding to your selection.
Outgoing: 2

----------
Method: GVS (Dynamic Vapour Sorption) water uptake of crystalline forms
Assay type: physicochemical
Settings: at 80% RH; ±0.2%
Readout Label: GVS weight increase (% w/w)

# example entries with known answers
CNCCOc1ccccc1C(C)(C)Nc1nccn(-c2cc(C(=O)NC3CC3)ccc2C)c1=O [example 163 crystalline form B] = 4.3
CNCCOc1ccccc1C(C)(C)Nc1nccn(-c2cc(C(=O)NC3CC3)ccc2C)c1=O [example 163 crystalline form C] = 0.3

[A] CNCCOc1ccccc1C(C)(C)Nc1nccn(-c2cc(C(=O)NC3CC3)ccc2C)c1=O [example 163 crystalline form A]
[B] CNCCOc1ccccc1C(C)(C)Nc1nccn(-c2cc(C(=O)NC3CC3)ccc2C)c1=O.Cc1ccc(S(=O)(=O)O)cc1
Incoming: Which numeric GVS weight increase is bigger, that of A or that of B ? Reply with the label of the item you choose.
Outgoing: A
(A: 5 % w/w, B: 0.1 % w/w)
